# test.target: APJ (Homo sapiens)
# Construct: expressed in transfected cells; host or cells: CHO (CHO-A10; clone 6 for the cAMP assay)
# Sequence (P35414 whole entry): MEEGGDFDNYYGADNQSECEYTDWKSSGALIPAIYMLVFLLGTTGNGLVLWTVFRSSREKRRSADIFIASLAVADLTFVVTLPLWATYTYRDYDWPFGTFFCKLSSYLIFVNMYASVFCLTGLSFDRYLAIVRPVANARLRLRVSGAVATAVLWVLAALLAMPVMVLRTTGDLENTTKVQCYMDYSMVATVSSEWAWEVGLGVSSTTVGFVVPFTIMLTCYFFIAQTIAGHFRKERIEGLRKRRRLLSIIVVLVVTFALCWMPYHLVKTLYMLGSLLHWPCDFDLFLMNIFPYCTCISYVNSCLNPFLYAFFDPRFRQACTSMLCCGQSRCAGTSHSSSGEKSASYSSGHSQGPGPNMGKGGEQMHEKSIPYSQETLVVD
# procedure.summary: Receptor binding assay-1 (125I-labeled compound in Reference Example 1, CHO-A10 membrane fraction)
# measurement.conditions: 125I-labeled compound in Reference Example 1 at 100 pM, room temperature […]
pIC50: −log10 of the molar value. Non-standard residues stand in square brackets, D forms with d. Residues, ends and D or L forms follow the SMILES beside them. Phe(4-Cl) = N[C@@H](Cc1ccc(Cl)cc1)C(=O)O; Cha = N[C@@H](CC1CCCCC1)C(=O)O
observation.type: pIC50

[[record]]
compound = "CC(C)C[C@H](NC(=O)[C@H](CCCNC(=N)N)NC(=O)[C@@H]1CCCN1C(=O)[C@@H](N)CCCNC(=N)N)C(=O)N[C@@H](CO)C(=O)N[C@@H](C)C(=O)N[C@@H](CCCNC(=N)N)C(=O)NCC(=O)N1CCC[C@H]1C(=O)N[C@@H](CC1CCCCC1)C(=O)N[C@@H](Cc1ccc(Cl)cc1)C(=O)O [Compound in Ex. 4] (H-RPRLSARGP[Cha][Phe(4-Cl)]-OH; N-terminus and C-terminus assumed)"
observation_type = "pIC50"
quantitative_readout = 9.00

[[record]]
compound = "CC(C)C[C@H](NC(=O)[C@H](CCCNC(=N)N)NC(=O)[C@@H]1CCCN1C(=O)[C@@H](N)CCCNC(=N)N)C(=O)N[C@@H](CO)C(=O)N[C@@H](C)C(=O)N[C@@H](CCCNC(=N)N)C(=O)NCC(=O)N1CCC[C@H]1C(=O)N[C@@H](CC1CCCCC1)C(=O)N1CCC[C@H]1C(=O)N[C@@H](Cc1ccc(Cl)cc1)C(=O)O [Compound in Ex. 5] (H-RPRLSARGP[Cha]P[Phe(4-Cl)]-OH)"
observation_type = "pIC50"
quantitative_readout = 8.92

